Target: GST-YTHDF2 (Homo sapiens, UniProt Q9Y5A9)
Construct: made in house
Sequence (Q9Y5A9 whole entry): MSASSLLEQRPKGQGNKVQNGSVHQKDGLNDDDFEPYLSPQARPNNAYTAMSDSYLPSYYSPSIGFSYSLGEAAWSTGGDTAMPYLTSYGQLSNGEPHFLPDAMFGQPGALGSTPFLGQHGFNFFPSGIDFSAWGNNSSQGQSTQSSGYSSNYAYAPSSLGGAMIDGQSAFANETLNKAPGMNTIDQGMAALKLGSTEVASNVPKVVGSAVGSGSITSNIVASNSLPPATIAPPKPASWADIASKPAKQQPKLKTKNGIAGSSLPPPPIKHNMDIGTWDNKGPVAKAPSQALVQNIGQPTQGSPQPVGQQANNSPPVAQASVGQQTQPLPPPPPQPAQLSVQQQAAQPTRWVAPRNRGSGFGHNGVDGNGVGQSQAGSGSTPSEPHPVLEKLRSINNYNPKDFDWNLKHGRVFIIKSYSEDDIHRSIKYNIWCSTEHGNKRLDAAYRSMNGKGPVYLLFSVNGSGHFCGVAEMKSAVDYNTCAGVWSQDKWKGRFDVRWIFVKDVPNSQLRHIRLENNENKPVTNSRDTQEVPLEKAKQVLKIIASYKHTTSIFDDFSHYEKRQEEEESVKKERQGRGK
Procedure Details: HTRF-based binding assay, competition with m6A-oligoRNA, DF2
Measurement Conditions: dose-response, competitor m6A-oligoRNA; read-out: DF2 IC50 (HTRF assay)
Please assign false whenever IC50 is at or above 30 µM, and true whenever it is below.

Observe how each entry below is paired with its result.
O=c1[nH]c(=S)[nH]c2scc(-c3ccc(O)cc3)c12	false
Cc1cc(O)nc(NC=C2C(=O)NC(=S)NC2=O)n1	false
O=c1[nH]c(=S)[nH]c2sccc12	true
CC1CCc2c(sc3[nH]c(=S)[nH]c(=O)c23)C1 (stereo not shown)	false
Cc1c(C(C)O)sc2[nH]c(=S)[nH]c(=O)c12 (racemic)	true

IC50 under 30 µM? Item: Cc1c(-c2ccc(N)cc2)sc2[nH]c(=S)[nH]c(=O)c12 true

IC50 under 30 µM? Item: Cc1c(C(=O)NCc2cccnc2)sc2[nH]c(=S)[nH]c(=O)c12 true

IC50 under 30 µM? Item: O=c1[nH]c(=S)[nH]c2sc3c(c12)CCC3 false

IC50 under 30 µM? Item: Cc1cc(=O)c(OCc2ccc(F)cc2)c[nH]1 false
